# tested-target: Pantothenate synthetase (Mycobacterium tuberculosis (strain ATCC 25618 / H37Rv))
# assay-name: Coupled enzyme confirmation of inhibitors against recombinant Mtb PanC (AID 375);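 further: 0% = full reaction with vehicle and 100% = no enzyme background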
# test-conditions: coupled enzyme assay; at 10 µM, stronger effect = higher value
Listed molecules paired with reported inhibition

molecule	inhibition (%)
CCOCCCNC(=O)C1CC(=O)N(C2CCCC2)C1 (stereo not given)	2
CCCC(C(=O)NCc1ccco1)N(C(=O)CNS(=O)(=O)c1ccc(Cl)cc1)C1CCCC1 (stereo not given)	0
COc1ccccc1N1C(=O)CC(Sc2nc(C)cc(C)n2)C1=O (stereo not given)	0
COc1ccc(CC(=O)NCc2ccccc2)cc1S(=O)(=O)N1CCOCC1	0
Cc1ccc(-c2[nH]nc3c2C(c2ccoc2)C(C#N)=C(N)O3)cc1C (stereo not given)	0
O=C(CSCc1ccc(F)cc1)NC1CCCC1	0
Cn1c(=O)c2c(-c3ccncc3)c3c(nc2n(C)c1=O)-c1ccccc1C3=O	0
COc1ccc(C2=CC(=O)OC3(CCCCC3)O2)cc1	0
Cn1c(=O)c2c3c(sc2n2c(SCC(=O)c4ccc(Cl)cc4)nnc12)COC(C)(C)C3	0
C[C@]12CC[C@@H]3c4ccc(O)cc4CC[C@H]3[C@@H]1CCC2=O	6
CCOC(=O)/C=C(\C)Sc1cc(=O)oc2ccccc12	6
c1ccc(CCn2nnnc2C(c2cccs2)N2CCOCC2)cc1 (stereo not given)	1
CC(=O)NC1(C(F)(F)F)NC(=O)N(CC(C)C)C1=O (stereo not given)	0
c1ccc(CNc2ncnc3ccccc23)cc1	12
COc1cc2c(N3CCOCC3)cc(O)c(CC(=O)Nc3ccccc3)c2cc1OC	7
O=C(Cn1c(SCC(=O)N2CCCc3ccccc32)nc2ccccc21)N1CCCC1	0
CCOC(=O)c1ccc(N2C(=O)CC(N3CCN(C/C=C/c4ccccc4)CC3)C2=O)cc1 (stereo not given)	2
CC(Sc1n[nH]c(=O)[nH]c1=O)C(=O)OCc1ccccc1 (stereo not given)	2
COc1cccc(CNC(=O)C2CCN(C(=O)N(C)C)CC2)c1	2
O=C(CSc1nnc(-c2ccc(Br)cc2)n1C1CCCCC1)N1CCCC1	2
O=C(Cn1ccc2ccccc2c1=O)NCCC(=O)NC1CCN(Cc2ccccc2)CC1	0
O=C(OCC(=O)c1c[nH]c2ccccc12)C1=COCCO1	0
NC(=O)C1(N2CCCCC2)CCN(C2CC(=O)N(Cc3cccs3)C2=O)CC1 (stereo not given)	0
CCC1(NC(C)=O)CC2CC1CC2NC(C)=O (stereo not given)	0
COC(=O)c1sc(N)c(C(=O)OC)c1CSc1nc2sc3c(c2c(=O)n1C)CCC3	0
O=C(CCCN1CCC2(CC1)C(=O)NCN2c1ccccc1)c1ccc(F)cc1	1
Cc1ccc2cc(C(c3nnnn3C3CCCC3)N3CCN(c4ccc(F)cc4)CC3)c(=O)[nH]c2c1 (stereo not given)	6
CC1(C)Cc2noc(N)c2C(C)(C)N1OC(=O)c1ccccc1	0
O=C(Nc1ccc2c(c1)OCO2)c1nn(-c2ccccc2)c(=O)c2ccccc12	3
O=C(NC1CCCc2ccccc21)c1ccc(CNc2c(N3CCOCC3)c(=O)c2=O)cc1 (stereo not given)	0
C=CCn1c(O)c(C(C)=Nc2ccc(N(CC)CC)cc2)c(=O)[nH]c1=O	1
CCCc1cc(=O)[nH]c(Nc2ccc(OC)c(Cl)c2)n1	3
O=C(O)C1CC(=O)N(CCOc2ccccc2)C1 (stereo not given)	8
Cc1ccc(C)c(C(=O)CC2(O)C(=O)N(C)c3ccccc32)c1 (stereo not given)	0
Cc1noc(C)c1CSc1nnc2scc(-c3ccc(Cl)cc3)n12	0
Cc1ccc(-n2nc(C)c3cc(C(=O)O)sc32)cc1	0
O=C(O)c1cc2nc(-c3ccc(F)cc3)cc(C(F)(F)F)n2n1	2
Cc1cc(C(=O)N2CCN(C(c3ccccc3)c3ccccc3)CC2)no1	3
N#CCCN(C(=O)Nc1ccc(Cl)cc1)c1ccccc1	1
O=C(CCn1c(=O)c2ccccc2n(CC(=O)NCCC2=CCCCC2)c1=O)NCc1ccco1	4
Nc1cc(N)nc(SCc2ccccc2)n1	0
CC1=C(C)C(=O)NC(Nc2nc(C)c3cc(C)cc(C)c3n2)N1 (stereo not given)	0
Cn1c(=O)c(=O)n(C)c2cc(S(=O)(=O)Nc3ccc4c(c3)OCCO4)ccc21	6
CCOC(=O)c1cc(C)sc1N1C(=O)C2C3C=CC(C3)C2C1=O (stereo not given)	0
O=C(Cn1ncc2c(=O)oc3ccccc3c21)NCCCN1CCCC1=O	0
